target-of-assay: human glucagon receptor (human, UniProt P47871 26-477)
Sequence (P47871 26-477): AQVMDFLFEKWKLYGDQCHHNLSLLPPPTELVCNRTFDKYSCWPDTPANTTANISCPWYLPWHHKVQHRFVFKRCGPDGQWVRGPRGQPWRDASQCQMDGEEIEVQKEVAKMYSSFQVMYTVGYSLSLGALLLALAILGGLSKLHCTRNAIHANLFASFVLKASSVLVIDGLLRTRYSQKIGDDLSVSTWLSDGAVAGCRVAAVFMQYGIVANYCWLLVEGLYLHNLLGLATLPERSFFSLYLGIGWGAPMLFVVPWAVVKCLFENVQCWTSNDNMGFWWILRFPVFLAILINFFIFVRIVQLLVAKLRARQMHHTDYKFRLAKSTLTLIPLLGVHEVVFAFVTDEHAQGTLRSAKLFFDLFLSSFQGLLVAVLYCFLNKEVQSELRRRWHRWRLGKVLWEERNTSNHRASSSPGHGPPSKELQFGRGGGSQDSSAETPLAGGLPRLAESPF
method-summary: cell-based or functional assay
Numbered stars: 1 amine (or outer) side, 2 acyl side, 3 side chain; on linkers, the order of the positions; unused ones are H or OH. Square brackets hold non-standard residues; d marks the D form. Side chains are listed from the residue outwards. Ends that are not written are not given here. * marks the point of attachment. γGlu = O=C(O)[C@H](CCC(=O)[*:2])N[*:1]; Palmitoyl = CCCCCCCCCCCCCCCC(=O)*; Aib = CC(C)(N)C(=O)O
// assign Y if EC50 hGlucagon-R falls strictly below 5 pM, else N (ties count as N)

| binder | category-label |
| --- | --- |
| HXHGTFTSDLSKQKDEEAARLFIEWLKAGGPSSGAPPPS (D-Ser at 2; Lys 14 side chain K(γE-γE-x53) = (S)-4-Carboxy-4-((S)-4-carboxy-4-hexadecanoylamino-butyrylamino)-butyryl-; C-terminal amide) [SEQ ID NO: 29] | Y |
| HXQGTFTSDLSKQKDEEAARLFIEWLKAGGPSSGAPPPS (D-Ser at 2; Lys 14 side chain K(γE-γE-x53) = (S)-4-Carboxy-4-((S)-4-carboxy-4-hexadecanoylamino-butyrylamino)-butyryl-; C-terminal amide) [SEQ ID NO: 32] | N |
| H[dS]HGTFTSDLSKQK([γGlu-γGlu-Palmitoyl])DEEAARLFIEWL[Aib]AGGPSSGAPPPS-NH2 [SEQ ID NO: 7] | N |
| HXQGTFTSDLSKQKDEEAARLFIEWLXAGGPSSGAPPPS (D-Ser at 2; Lys 14 side chain K(γE-γE-x53) = (S)-4-Carboxy-4-((S)-4-carboxy-4-hexadecanoylamino-butyrylamino)-butyryl-; Aib at 27; C-terminal amide) [SEQ ID NO: 9] | N |
| H-HSQGTFTSDLSKQK([γGlu-γGlu-Palmitoyl])DEEAARLFIEWLKAGGPSSGAPPPS-NH2 [SEQ ID NO: 33] | Y |
